Catalogue of compounds with associated % Inhibition
System: acyl-coenzyme A: cholesterol acyltransferase
Experiment: Inhibition of ACAT / intracellular cholesterol esterification in vitro (procedure of Ross et al.)
Assay type: cell-based
Conditions: 25 μM
Reply with just the number (in %).

Here are 6 compounds together with their reported answers.
{"Compound": "CCCCCC(C)N(Cc1ccc(OCCC(C)C)cc1)C(Nc1ccc(N(C)C)cc1)=C1C(=O)OC(C)(C)OC1=O (stereo not shown)", "Unit abbrev": "%", "% Inhibition": 99}
{"Compound": "CC(C)Cc1ccc(CN(C(Nc2ccc(N(C)C)cc2)=C2C(=O)OC(C)(C)OC2=O)C2CCN(Cc3ccccc3)CC2)cc1", "Unit abbrev": "%", "% Inhibition": 80}
{"Compound": "CCCCOc1ccc(NC(=C2C(=O)OC(C)(C)OC2=O)N(Cc2ccc(C(C)(C)C)cc2)C(C)CCCC(C)C)cc1 (stereo not shown)", "Unit abbrev": "%", "% Inhibition": 98}
{"Compound": "CCCCCCCN(Cc1ccc(C(C)(C)C)cc1)C(Nc1ccc(C(F)(F)F)cc1)=C1C(=O)OC(C)(C)OC1=O", "Unit abbrev": "%", "% Inhibition": 42}
{"Compound": "CCCCCC(C)N(Cc1ccc(C(C)(C)C)cc1)C(Nc1ccc(OC)cc1OC)=C1C(=O)OC(C)(C)OC1=O (stereo not shown)", "Unit abbrev": "%", "% Inhibition": 99}
{"Compound": "CCCCCCOc1ccc(NC(=C2C(=O)OC(C)(C)OC2=O)N(Cc2ccc(CC(C)C)cc2)C(C)CCCCC)cc1 (stereo not shown)", "Unit abbrev": "%", "% Inhibition": 97}

Shift focus to the following entry.
# input Give the measured % Inhibition of COc1ccc(NC(=C2C(=O)OC(C)(C)OC2=O)N(Cc2ccc(CC(C)C)cc2)C(C)CN2CCOCC2)c(OC)c1 (stereo not shown) .
# output 74
